The origin of these recorded values is patent EP0090603A2.

Assay system Strep. suis (group D) SPS11; read-out recorded as MIC.

{"Compound": "CCOC(=O)C(C)=C(C)CC1OCC(CC2OC2C(C)C(C)O)C(O)C1O (stereo not shown)", "MIC": "> 80 µg/mL"}
{"Compound": "COC(=O)C(C)=C(C)CC1OCC(CC2OC2C(C)C(C)O)C(O)C1O (stereo not shown)", "MIC": "> 80 µg/mL"}
{"Compound": "CC(CC1OCC(CC2OC2C(C)C(C)O)C(O)C1O)=C(C)C(=O)O (stereo not shown)", "MIC": "20 µg/mL"}
{"Compound": "CC(CC1OCC(CC2OC2C(C)C(C)O)C(O)C1O)=C(C)C(=O)OCc1cccc([N+](=O)[O-])c1 (stereo not shown)", "MIC": "10 µg/mL"}
